# method.notes: Stability in aqueous solution under long-term storage conditions (related substances)
# Format: physicochemical
# protocol.conditions: 25° C., 75% RH
Square brackets hold non-standard residues; d marks the D form. Peptide text beside a SMILES is read from it. ξ: configuration not given here. Nva(4-oxo) = CC(=O)C[C@H](N)C(=O)O; Hyp = O=C(O)[C@@H]1C[C@@H](O)CN1; Thr(3ξ) = CC(O)[C@H](N)C(=O)O; Sar = CNCC(=O)O
measured.quantity: Amount of related substances (after 12 weeks) (%)
Write the number in % without appending the unit.

// below: answered molecules
CC(C)C[C@H](NC(=O)[C@@H](NC(=O)[C@H](CC(=O)O)NC(=O)[C@H](CCC(N)=O)NC(=O)CNC(=O)[C@@H]1C[C@@H](O)CN1)C(C)O)C(=O)N[C@@H](C)C(=O)NCC(=O)N1CCC[C@H]1C(=O)N[C@@H](CCCCN)C(=O)O (stereo partly drawn) [YDE-024] (H-[Hyp]GQD[Thr(3ξ)]LAGPK-OH)    20.59
CC(C)C[C@H](NC(=O)CNC(=O)[C@H](CC(C)C)NC(=O)[C@H](CCC(N)=O)NC(=O)CNC(=O)[C@@H]1C[C@@H](O)CN1)C(=O)N[C@@H](C)C(=O)NCC(=O)N1CCC[C@H]1C(=O)N[C@@H](CCCCN)C(=O)O [YDE-011] (H-[Hyp]GQLGLAGPK-OH)    3.83

Now for a further molecule.
Q: Look up Amount of related substances (after 12 weeks): CC(=O)C[C@H](NC(=O)[C@H](CCC(N)=O)NC(=O)CNC(=O)[C@@H]1C[C@@H](O)CN1)C(=O)N(C)CC(=O)N[C@@H](CC(C)C)C(=O)N[C@@H](C)C(=O)NCC(=O)N1CCC[C@H]1C(=O)N[C@@H](CCCCN)C(=O)O [YDE-025] (H-[Hyp]GQ[Nva(4-oxo)][Sar]LAGPK-OH)
Result: 5.17
